Documented TGI across a set of compounds
# Test system: M14 melanoma
# test_summary: NCI tumour cell line growth inhibition, 48 h

- compound: "CC(C)C(=O)c1c(C(F)(F)F)n([O-])c2cc(F)c(F)cc2[n+]1=O"
  unit_string: "µM"
  limit_operator: "="
  TGI: 0.387
- compound: "Cn1nc(C(F)(F)F)c(-c2cc(C(F)(F)F)cc(C(F)(F)F)c2)c1-c1ccc(OCc2ccc(Cl)cc2)cc1O"
  unit_string: "µM"
  limit_operator: "="
  TGI: 5.27
- compound: "Clc1ccc2nc(CI)c(CI)nc2c1"
  unit_string: "µM"
  limit_operator: ">"
  TGI: 19.8
- compound: "O=CN1N=C(c2cccc(Nc3ccnc4cc(Cl)ccc34)c2)CC1c1ccccc1 (stereo not given)"
  unit_string: "µM"
  limit_operator: "="
  TGI: 6.75
- compound: "CCN(CC)CC1CN=C(N)O1 (stereo not given)"
  unit_string: "µM"
  limit_operator: ">"
  TGI: 100
- compound: "CN(C)CCOc1ccc(-c2c(Oc3ccccc3)c(=O)oc3ccccc23)cc1"
  unit_string: "µM"
  limit_operator: "="
  TGI: 4.63
- compound: "COC(=O)c1c2c(c(C)[n+]([O-])c1C)C(=O)C=C(NCc1cccc(Cl)c1)C2=O"
  unit_string: "µM"
  limit_operator: "="
  TGI: 1.56
- compound: "C=C1C(=O)O[C@H]2[C@H]1CC/C(COC(=O)CCCc1c[nH]c3ccccc13)=C\\CC[C@@]1(C)O[C@@H]21"
  unit_string: "µM"
  limit_operator: "="
  TGI: 3.87
- compound: "O=C(C#Cc1ccccc1)C1=Cc2ccccc2OC1"
  unit_string: "µM"
  limit_operator: "="
  TGI: 8.21
- compound: "COc1cc2cc(C(=O)N3CC(CCl)c4ccc(N(C)C)cc43)[nH]c2c(OC)c1OC (stereo not given)"
  unit_string: "µM"
  limit_operator: "="
  TGI: 0.237
- compound: "CC1=NOC(=O)/C1=C/c1ccc([N+](=O)[O-])cc1"
  unit_string: "µM"
  limit_operator: ">"
  TGI: 100
- compound: "CCCCCCCCCCCCCCCCNCCC[C@@H](C)[C@H]1CC[C@H]2[C@@H]3[C@H](OCCCN)C[C@@H]4C[C@H](OCCCN)CC[C@]4(C)[C@H]3C[C@H](OCCCN)[C@]12C"
  unit_string: "µM"
  limit_operator: "="
  TGI: 5.65
- compound: "O=C(C/C(=N/O)C(F)(F)F)c1cccs1"
  unit_string: "µM"
  limit_operator: ">"
  TGI: 100
- compound: "CC(=O)NC(CSC1=C2NC(=O)\\C=C/C=C/C=C\\C(C)C(O)CC(=O)/C(C)=C\\CC(O)/C=C/C(C)C(O)C(C)C=C(C)C(=O)c3c(O)c(C)cc(c3C1=O)C2=O)C(=O)O (stereo not given)"
  unit_string: "µM"
  limit_operator: ">"
  TGI: 100
- compound: "Cc1ccc(N=Nc2c(O)ccc3cc(S(=O)(=O)O)ccc23)cc1"
  unit_string: "µM"
  limit_operator: ">"
  TGI: 100
- compound: "Cc1ccc(-c2cc[n+]3c(n2)oc2ccccc23)cc1"
  unit_string: "µM"
  limit_operator: "="
  TGI: 84.5
- compound: "Cc1c(C)c(C)c(-n2c(=O)n(C)c(=O)n2-c2cc(C(C)(C)C)cc(C(C)(C)C)c2O)c(C)c1C"
  unit_string: "µM"
  limit_operator: "="
  TGI: 25.9
- compound: "C[n+]1c2ccccc2nc2ccccc21"
  unit_string: "µM"
  limit_operator: "="
  TGI: 3.89
- compound: "C[C@H]1CNC(=O)c2cnn3ccc(nc23)N[C@H](C)c2cc(F)ccc2O1"
  unit_string: "µM"
  limit_operator: ">"
  TGI: 100
- compound: "N/N=C(\\c1nc2ccc(Cl)cc2[nH]c1=O)C(O)c1ccc(Cl)c(Cl)c1 (stereo not given)"
  unit_string: "µM"
  limit_operator: ">"
  TGI: 100
